Data origin: PubChem BioAssay (NCI)

- Tested on: HOP-92 NSCLC
- assay: NCI tumour cell line growth inhibition, 48 h
quantityName: TGI

- molecule: "CC1CN=C(Nc2ccc(F)c(Cl)c2)S1 (stereo not drawn)"
  systemTested: "HOP-92 NSCLC"
  reported: "> 100 µM"
- molecule: "C=C1C(=O)O[C@H]2[C@H]1CC/C(COC(=O)NCCCCCCCCNC(=O)OC/C1=C/CC[C@@]3(C)O[C@H]3[C@H]3OC(=O)C(=C)[C@@H]3CC1)=C\\CC[C@@]1(C)O[C@@H]21"
  systemTested: "HOP-92 NSCLC"
  reported: "0.551 µM"
- molecule: "COc1cnc2c(c1)C(=O)c1c-2n(CCCN2CCNCC2)c(=O)c2cc([N+](=O)[O-])ccc12"
  systemTested: "HOP-92 NSCLC"
  reported: "9.91 µM"
- molecule: "COC(=O)[C@]12CC[C@@H](C)[C@H](C)[C@@H]1C1=CC[C@@H]3[C@@]4(C)C(C=O)=C[C@@](C)(COC(=O)/C=C/c5ccccc5)[C@@H]4[C@H](O)C[C@@]3(C)[C@]1(C)CC2"
  systemTested: "HOP-92 NSCLC"
  reported: "9.1 µM"
- molecule: "COC[C@H](C)N=CN1CCc2ccccc2C1(Cc1ccccc1)Cc1ccccc1"
  systemTested: "HOP-92 NSCLC"
  reported: "29.8 µM"
- molecule: "CCCNC(=O)N1CC(CN2CCN(c3ccccc3)CC2)O/C1=N/C(=O)Nc1ccccc1 (stereo not drawn)"
  systemTested: "HOP-92 NSCLC"
  reported: "> 100 µM"
- molecule: "CN(C)CCNC(=O)NC[C@H]1CC[C@@H]2[C@H](O1)c1cc(C(F)(F)F)ccc1N[C@H]2c1ccccc1"
  systemTested: "HOP-92 NSCLC"
  reported: "29 µM"
- molecule: "CCOC(=O)C(C(O)c1ccc([N+](=O)[O-])cc1)P(=O)(OCC)OCC (stereo not drawn)"
  systemTested: "HOP-92 NSCLC"
  reported: "99.5 µM"

###

- Test system: HCT-15 colon
- assay: NCI tumour cell line growth inhibition, 48 h; in the data active means GI50 below about 0.43 µM; inactive means the rest
Labels: active, inactive

- compound: "C[CH2][Sn]([CH2]C)([O]C(=O)c1ccc(OC)c(OC)c1OC)[O]C(=O)c1ccc(OC)c(OC)c1OC"
  systemTested: "HCT-15 colon"
  classification: "inactive"
- compound: "[CH3][Sn]([CH3])([CH3])[O][N+](=O)[O-]"
  systemTested: "HCT-15 colon"
  classification: "inactive"
- compound: "CC1=C([Se]CC(OC(=O)[C@@H](CO)NC(=O)OC(C)(C)C)C(=O)NCCCCCC(=O)OCc2ccccc2)C(=O)c2ccccc2C1=O (some centres not stated)"
  systemTested: "HCT-15 colon"
  classification: "inactive"
- compound: "CCC[CH2][Pb]([Cl])([CH2]CCC)[CH2]CCC"
  systemTested: "HCT-15 colon"
  classification: "active"
- compound: "Cc1cc(Cl)cc(Cc2cc(Cl)cc(C)c2O)c1O"
  systemTested: "HCT-15 colon"
  classification: "inactive"
- compound: "Cc1nccc2c3ccc(OCc4cn(-c5ccc(Cl)cc5)nn4)cc3n(CC(C)C)c12"
  systemTested: "HCT-15 colon"
  classification: "inactive"
- compound: "CCCCCCCC(=O)[O][Hg][CH2]C1COC([CH2][Hg][O]C(=O)CCCCCCC)CO1 (configuration not stated)"
  systemTested: "HCT-15 colon"
  classification: "inactive"

###

- System: K-562 leukemia
- assay: NCI tumour cell line growth inhibition, 48 h
# TGI >= 5 µM gives satisfied, anything below gives not satisfied

- compound: "NC(=O)C(=CNC(=S)Nc1cccc(C(F)(F)F)c1)C(N)=O"
  classification: "satisfied"
- compound: "CCN1CCC(O)(c2ccc(O)cc2)C(C(=O)c2ccc(O)cc2)C1 (stereo unspecified)"
  classification: "satisfied"
- compound: "CC(=O)/C(C=Nc1c(C)n(C)n(C)c1=O)=C(/O)c1ccccc1"
  classification: "satisfied"
- compound: "O=[N+]([O-])c1ccc(Sc2ccncn2)c([N+](=O)[O-])c1"
  classification: "not satisfied"
- compound: "COc1ccc(N(C)c2nc(Cl)nc3cnn(C)c23)cc1"
  classification: "satisfied"
- compound: "c1ccc([P+](CCCCCC[P+](c2ccccc2)(c2ccccc2)c2ccccc2)(c2ccccc2)c2ccccc2)cc1"
  classification: "satisfied"
- compound: "COC1=CC(=O)C2=C(C[C@@]3(C)C(=C2)C(CO)=CC[C@H]3O)C1=O"
  classification: "satisfied"
- compound: "CCOC(=O)c1cccnc1C(OC(C)=O)OC(C)=O"
  classification: "satisfied"
- compound: "CN(C)c1ccc(N=C2C=CC(=O)c3ccccc32)cc1"
  classification: "not satisfied"
- compound: "CCN(CC)CCNc1ccc2nc(C)n3c4ccc(O)cc4c(=O)c1c23"
  classification: "satisfied"
- compound: "Cc1cc(Cl)cc(Cc2cc(Cl)cc(C)c2O)c1O"
  classification: "satisfied"

###

- System: SF-268 CNS
- assay: NCI tumour cell line growth inhibition, 48 h; in the data active means GI50 below about 0.43 µM; inactive means the rest
Classes used: active, inactive

- compound: "C[C@@H](Oc1cc(-n2cnc3ccc(OC[C@@H](O)CO)cc32)sc1C(N)=O)c1ccccc1Cl"
  classification: "active"
- compound: "COc1ccc(OC)c(/C=C/c2nc(SCc3ccccc3)n(-c3ccc(Cl)cc3)n2)c1"
  classification: "inactive"
- compound: "COC1=CC(=O)c2nc(Cl)ccc2C1=O"
  classification: "inactive"
- compound: "CN(C)CCNC(=O)NC[C@H]1CC[C@@H]2[C@H](O1)c1cc(C(F)(F)F)ccc1N[C@H]2c1ccccc1"
  classification: "inactive"
- compound: "CN1CCN(Cc2ccc(NC(=O)c3cncc(C#Cc4cnc(N)c5cnccc45)c3)cc2C(F)(F)F)CC1"
  classification: "active"
- compound: "CN(C)CCOC(=O)Nc1nc2ccc(Sc3ccccc3)cc2[nH]1"
  classification: "inactive"
- compound: "Cn1c2ccccc2c2c(=O)n(CCCC(=O)OC(=NC3CCCCC3)NC3CCCCC3)c3c(-c4ccccc4)nnn3c21"
  classification: "inactive"
- compound: "COC(=O)[C@]12CC[C@@H](C)[C@H](C)[C@@H]1C1=CC[C@@H]3[C@@]4(C)C(C=O)=C[C@@](C)(COC(=O)/C=C/c5ccccc5)[C@@H]4[C@H](O)C[C@@]3(C)[C@]1(C)CC2"
  classification: "inactive"
- compound: "FC(F)(F)c1cc(Nc2ccc3cc(OCCCN4CCOCC4)ccc3n2)ccc1Cl"
  classification: "inactive"
- compound: "N#CC1C(=O)NC(c2ccccc2[N+](=O)[O-])c2sc3c(F)cccc3c21 (stereo not given)"
  classification: "inactive"

###

- Test system: K-562 leukemia
- assay: NCI tumour cell line growth inhibition, 48 h
quantityName: TGI

- compound: "COCCn1cc(-c2csc(-c3c[nH]c4ccc(Br)cc34)n2)c2cccnc21"
  quantityName: "TGI"
  reported: "> 100 µM"
- compound: "CC(C)C1N2CCCCC2[C@@H]2c3[nH]c4ccccc4c3CCN12 (stereo partly specified)"
  quantityName: "TGI"
  reported: "> 100 µM"
- compound: "N#Cc1c(O)c2ccccc2[nH]c1=O"
  quantityName: "TGI"
  reported: "> 100 µM"
- compound: "COc1cc2c(cc1C)NC(=O)/C2=C\\c1c[nH]c2ccccc12"
  quantityName: "TGI"
  reported: "51.5 µM"
- compound: "CCCC(=O)NC(Nc1ccc(S(=O)(=O)Nc2ccc(OC)nn2)cc1)(C(F)(F)F)C(F)(F)F"
  quantityName: "TGI"
  reported: "> 100 µM"
- compound: "CCCNC(=O)N(C)C(=O)N1N=C(c2ccccc2)C1c1ccccc1 (stereo unspecified)"
  quantityName: "TGI"
  reported: "> 100 µM"
- compound: "C=CCN(N=O)C(=O)NCCCCC(NC(C)=O)C(=O)NCc1ccccc1 (stereo unspecified)"
  quantityName: "TGI"
  reported: "> 100 µM"
- compound: "COc1cc(/C=N/NC2=NCCCCN2)ccc1O"
  quantityName: "TGI"
  reported: "> 100 µM"
- compound: "O=c1c2ccccc2[nH]c2c(Cl)cc(Cl)c(N3CCCCC3)c12"
  quantityName: "TGI"
  reported: "> 10 µM"
- compound: "O=c1ccnc2ccc3n[nH][nH]c3c12"
  quantityName: "TGI"
  reported: "> 100 µM"
- compound: "O=c1c2c(c1=O)-c1ccccc1CN2"
  quantityName: "TGI"
  reported: "> 100 µM"

###

Overview of recorded GI50 for various compounds
- Test system: LOX IMVI melanoma
- assay: NCI tumour cell line growth inhibition, 48 h

- compound: "O=[N+]([O-])c1ccc(Sc2ccncn2)c([N+](=O)[O-])c1"
  systemTested: "LOX IMVI melanoma"
  GI50: "1.97 µM"
- compound: "COc1cc(/C=C/C(=O)c2c(C)nc3ccccc3c2C)ccc1OCCCN1CCN(C(=O)c2ccco2)CC1"
  systemTested: "LOX IMVI melanoma"
  GI50: "7.75 µM"
- compound: "Cc1ccc(S(=O)(=O)N2CCc3ccc(O)c4c3C2Cc2ccc3c(c2-4)OCO3)cc1 (stereo unspecified)"
  systemTested: "LOX IMVI melanoma"
  GI50: "0.635 µM"
- compound: "COc1ccc(N(C)c2nc(Cl)nc3cnn(C)c23)cc1"
  systemTested: "LOX IMVI melanoma"
  GI50: "< 0.011 µM"
- compound: "CC1(C)N=C(N)N=C(N)N1c1cccc(Br)c1"
  systemTested: "LOX IMVI melanoma"
  GI50: "0.146 µM"
- compound: "Fc1ccc(Nc2nc3ccccc3c3occc23)cc1"
  systemTested: "LOX IMVI melanoma"
  GI50: "3.41 µM"
